experiment: qHTS assay to identify small molecule antagonists of the thyroid receptor (TR) signaling pathway - cell viability counter screen (AID 743064); details: GH3.TRE-Luc viability, CellTiter-Fluor, 24 h; series mostly up to 70.3 µM; further: on the % scale 0 is the no-effect control and ±100 the full control effect; nearly all actives have a fitted effect of over 50% in size
Inconclusive results are not listed. Activity calls are given as the source filed them. The call rests on the fitted dose curve; in most records, active means well fitted cell-killing curve with a large enough effect in the repeat runs; inconclusive means weak or mixed curves, or effect the other way; inactive means no such curve, though single readings can be large or run the other way.
Readout Label: outcome

Some solved cases for reference:
{"columns": ["Item Smiles", "outcome"],
 "data": [
  ["CC(C)c1ccc(C(C)C)cc1", "inactive"],
  ["CC(=O)OCCC(C)C", "inactive"],
  ["C=C1C[C@]23C[C@@]1(O)CC[C@H]2[C@@]12C=C[C@H](O)[C@@](C)(C(=O)O1)[C@H]2[C@@H]3C(=O)O", "inactive"],
  ["C[Si](C)(C)N[Si](C)(C)C", "inactive"],
  ["CS(=O)(=O)c1ccc(Cl)cc1", "inactive"],
  ["CC(=O)Nc1ccc(CC(=O)O)cc1", "inactive"]
]}

Next item in the queue.
Q) Supply outcome value. Item: CN1CCCC1=O
A) inactive

###

assay: qHTS assay to identify small molecule agonists of the estrogen receptor beta (ER-beta) signaling pathway - cell viability counter screen (AID 1259380); conditions: ER-beta-bla HEK293T viability, CellTiter-Glo luminescence, 16 h; series mostly up to 92.4 µM; further: on the % scale 0 is the no-effect control and ±100 the full control effect; nearly all actives have a fitted effect of over 30% in size
Results filed as inconclusive are left out. Activity calls are given as the source filed them. Calls follow the shape of the dose curve; as a rule, active = well fitted cell-killing curve with a large enough effect in the repeat runs; inconclusive = weak or mixed curves, or effect the other way; inactive = flat fitted curve, though single readings scatter.
Pick one: active, inactive

{"columns": ["Compound", "Assigned Label"],
 "data": [
  ["OCCOCCOCCOCCOCCO", "inactive"],
  ["Cc1ccc(Cl)cc1", "inactive"],
  ["CCCCCNCCCCC", "inactive"]
]}

Q) Each compound tested received a call. Report the one for CCc1cccc(O)c1 .
A) inactive

###

experiment: qHTS assay to identify small molecule antagonists of the estrogen receptor alpha (ER-alpha) signaling pathway using the BG1 cell line (AID 743080); details: BG1Luc4E2 ERE-luciferase antagonist mode, luminescence; series mostly up to 70.3 µM;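 further: BG1 cells stimulated with 17beta-estradiol alongside compound; nearly all actives have a fitted effect of over 25% in size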
Results filed as inconclusive are left out. Calls of active or inactive are those of the source. Calls come from the whole dose curve.
Tick one outcome: class 1 for active, class 0 for inactive

Q) What outcome does the record of this test show for CC(=O)C(C)C ?
A) class 0

Q) Name the outcome recorded for CC(C)=CCC/C(C)=C/C=O in the assay.
A) class 0

Q) Record request — test call for O=C(Cl)c1ccc(C(=O)Cl)cc1
A) class 0

Q) Recorded test call requested for C=CC(C)(C)C
A) class 0

Q) I would be grateful if you could indicate the recorded call for COc1ccc2cc3[n+](cc2c1OC)CCc1cc2c(cc1-3)OCO2 .
A) class 1

Q) Test call, this molecule: Nc1cccc(C(F)(F)F)c1
A) class 0

Q) Hi team, can someone confirm the assay call for CC(C)c1ccc(C(C)C)cc1 ?
A) class 0

Q) Test call for this molecule, please: OB(O)O
A) class 0

###

assay: qHTS assay to identify small molecule antagonists of the estrogen receptor alpha (ER-alpha) signaling pathway using the BG1 cell line - cell viability counter screen (AID 743081); details: BG1Luc4E2 viability, CellTiter-Fluor, 22 h; series mostly up to 70.3 µM;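 further: compound given together with 17beta-estradiol as the ER stimulus; on the % scale 0 is the no-effect control and ±100 the full control effect; nearly all actives have a fitted effect of over 45% in size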
Results filed as inconclusive are left out. Calls of active or inactive are those of the source. Calls follow the shape of the dose curve; as a rule, active = well fitted cell-killing curve with a large enough effect in the repeat runs; inconclusive = weak or mixed curves, or effect the other way; inactive = flat fitted curve, though single readings scatter.
Readout Label: outcome

Guide cases for outcome, answers given:
{"columns": ["Compound", "Endpoint Result"],
 "data": [
  ["N#CCC(=O)O", "inactive"],
  ["O=c1n(CCCN2CCN(c3cccc(Cl)c3)CC2)nc2ccccn12", "inactive"],
  ["Cc1cc(CC(=O)O)n(C)c1C(=O)c1ccc(Cl)cc1", "inactive"],
  ["O=c1c(O)c(-c2ccc(O)c(O)c2)oc2cc(O)cc(O)c12", "inactive"],
  ["CCCCCCCCCCCCCC(=O)O", "inactive"]
]}

Below is a list of compounds. For each, state its recorded outcome.
1. CC(C)(C)NC[C@H](O)COc1nsnc1N1CCOCC1
2. C=C(CC(=O)O)C(=O)O
3. COCN(COC)c1nc(N(COC)COC)nc(N(COC)COC)n1

A)
["inactive", "inactive", "inactive"]

Count: 7. Required value per item: outcome.
1. O=C(Cl)c1ccc(C(=O)Cl)cc1
2. NC(=O)NC(N)=O
3. CC(=O)OCc1ccc2c(c1)OCO2
4. Cc1ccccc1Cl
5. CN1Cc2c(N)cccc2C(c2ccccc2)C1 (configuration not stated)
6. C=C1C[C@]23C[C@@]1(O)CC[C@H]2[C@@]12C=C[C@H](O)[C@@](C)(C(=O)O1)[C@H]2[C@@H]3C(=O)O
7. CC(=O)CC(=O)N(C)C

A)
["inactive", "inactive", "inactive", "inactive", "inactive", "inactive", "inactive"]

###

test: A CellTox Green Cytotoxicity Assay to monitor cytotoxicity in HepG2 cells - 32 hour (AID 1224883); conditions: CellTox Green fluorescence; series mostly up to 76.8 µM; further: on the % scale 0 is the no-effect control and ±100 the full control effect; nearly all actives have a fitted effect of over 50% in size
Inconclusive results are not listed. Calls of active or inactive are those of the source. Calls follow the shape of the dose curve; as a rule, active = well fitted activation curve with a large enough effect in the repeat runs; inconclusive = weak or mixed curves; inactive = flat fitted curve, though single readings scatter.
Readout Label: outcome

Solved entries:
{"columns": ["Item Smiles", "outcome"],
 "data": [
  ["CC(=O)OCCC(C)C", "inactive"],
  ["C=C1C[C@]23C[C@@]1(O)CC[C@H]2[C@@]12C=C[C@H](O)[C@@](C)(C(=O)O1)[C@H]2[C@@H]3C(=O)O", "inactive"],
  ["OCc1ccc(Cl)cc1Cl", "inactive"],
  ["CC(C)=CCC/C(C)=C/C=O", "inactive"],
  ["O=C(O)C1=NN(c2ccc(S(=O)(=O)O)cc2)C(=O)C1", "inactive"]
]}

Record outcome for all entries; do not skip any.
1. C=C(C)CC(C)(C)C
2. Clc1cccc(Cl)c1NC1=NCCN1

A)
inactive
inactive

###

assay: qHTS assay to identify small molecule agonists of the estrogen related receptor (ERR) signaling pathway from Tox21 library (AID 1224849); details: ERR reporter cell line, ONE-Glo luciferase, 18 h; at 42.5 µM (top of the series); further: on the % scale 0 is the no-effect control and ±100 the full control effect; nearly all actives have a fitted effect of over 15% in size
I'd be grateful if you could share measured activity change, positive = activation for these entries.
Answers are plain numbers, in %.

# count of solved cases: 3
{"columns": ["Item Smiles", "Readout Label", "Readout Units", "Endpoint Result"],
 "data": [
  ["COC(=O)/C=C\\C(=O)OC", "activity change, positive = activation", "%", 7.01],
  ["CC(=O)Nc1ccc(CC(=O)O)cc1", "activity change, positive = activation", "%", -1.58],
  ["O=c1n(CCCN2CCN(c3cccc(Cl)c3)CC2)nc2ccccn12", "activity change, positive = activation", "%", -14.9]
]}

Provide activity change, positive = activation for all items below, preserving their order.
1. NCCNCCNCCN
2. Nc1nc(N)c2nc(-c3ccccc3)c(N)nc2n1

A)
1: 0.597; 2: -33.8

###

biological target: Cytochrome P450 2C19 (Homo sapiens); experiment: Cytochrome P450 Family 2 Subfamily C Member 19 (CYP2C19) small molecule antagonists: luciferase reporter qHTS assay (AID 1671197); conditions: P450-Glo CYP2C19 enzyme, luciferin luminescence, 1 h; series mostly up to 115 µM; further: nearly all actives have a fitted effect of over 65% in size
Records with an inconclusive call do not appear. Activity calls are given as the source filed them. Calls follow the shape of the dose curve; as a rule, active = well fitted inhibition curve with a large enough effect in the repeat runs; inconclusive = weak or mixed curves; inactive = no such curve, though single readings can be large or run the other way.
Please answer using one outcome listed in T (active), F (inactive)

Answered examples (5):
{"columns": ["Compound", "Target Or Test System", "Assigned Label"],
 "data": [
  ["Nc1cccc(N)n1", "Cytochrome P450 2C19 (Homo sapiens)", "T"],
  ["O=C(Cl)c1ccc(C(=O)Cl)cc1", "Cytochrome P450 2C19 (Homo sapiens)", "F"],
  ["C1CCCNCC1", "Cytochrome P450 2C19 (Homo sapiens)", "F"],
  ["CCCOCC(C)O (configuration not stated)", "Cytochrome P450 2C19 (Homo sapiens)", "F"],
  ["NC(N)=S", "Cytochrome P450 2C19 (Homo sapiens)", "T"]
]}

Q) Give the logged outcome of this assay for the following compound: O=C(NCC1CCCCN1)c1cc(OCC(F)(F)F)ccc1OCC(F)(F)F (configuration not stated)
A) F

Q) I'd appreciate the recorded outcome for C=CC(=O)NCOCCCC from this test.
A) T

###

assay: qHTS RealTime-Glo MT Cell Viability Assay in HEK293 cells - 32 hour (AID 1224868); conditions: RealTime-Glo luminescence; series mostly up to 76.8 µM; further: nearly all actives have a fitted effect of over 50% in size
Inconclusive results are not listed. Calls of active or inactive are those of the source. Calls come from the whole dose curve; as a rule, active = well fitted cell-killing curve with a large enough effect in the repeat runs; inconclusive = weak or mixed curves, or effect the other way; inactive = flat fitted curve, though single readings scatter.
Pick one and only one: active, inactive

{"columns": ["Compound", "Assigned Label"],
 "data": [
  ["C=CC(=O)NCOCCCC", "inactive"],
  ["Cc1ccc(C(C)C)cc1", "inactive"],
  ["CC/C(C)=N/O", "inactive"],
  ["Cc1ccncc1", "inactive"],
  ["N[C@@H](Cc1cc(I)c(Oc2ccc(O)c(I)c2)c(I)c1)C(=O)O", "inactive"],
  ["Oc1ccc(Cc2ccccc2O)cc1", "active"],
  ["Cc1cc(C)cc(O)c1", "inactive"],
  ["CCCOC(=O)NCCCN(C)C", "inactive"],
  ["Cc1ccc([N+](=O)[O-])cc1N", "inactive"],
  ["C[n+]1ccn(CCO)c1", "inactive"]
]}

Q) Hi, sorry to bother you, what did the test record for CC(=O)OC/C=C(\C)CCC=C(C)C ?
A) inactive

Q) Please state the recorded outcome for this compound: CC(C)c1ccc(C(C)C)cc1
A) inactive

Q) What was the test verdict on Nc1cccc(C(F)(F)F)c1 ?
A) inactive

Q) Write down the call the test reported for this compound. Item: CC(C=O)Cc1ccc(C(C)(C)C)cc1 (stereo unspecified)
A) inactive

Q) What did this assay record as the result for O=C(c1ccccc1)c1ccc(O)c(O)c1O ?
A) inactive

Q) So what was the verdict on CO[Si](CCCNCCN)(OC)OC in this test?
A) inactive

Cited source: PubChem BioAssay (Tox21)
